TARGET_OF_ASSAY: EPHB2 (UniProt P29323)
Sequence (P29323 whole entry, looked up): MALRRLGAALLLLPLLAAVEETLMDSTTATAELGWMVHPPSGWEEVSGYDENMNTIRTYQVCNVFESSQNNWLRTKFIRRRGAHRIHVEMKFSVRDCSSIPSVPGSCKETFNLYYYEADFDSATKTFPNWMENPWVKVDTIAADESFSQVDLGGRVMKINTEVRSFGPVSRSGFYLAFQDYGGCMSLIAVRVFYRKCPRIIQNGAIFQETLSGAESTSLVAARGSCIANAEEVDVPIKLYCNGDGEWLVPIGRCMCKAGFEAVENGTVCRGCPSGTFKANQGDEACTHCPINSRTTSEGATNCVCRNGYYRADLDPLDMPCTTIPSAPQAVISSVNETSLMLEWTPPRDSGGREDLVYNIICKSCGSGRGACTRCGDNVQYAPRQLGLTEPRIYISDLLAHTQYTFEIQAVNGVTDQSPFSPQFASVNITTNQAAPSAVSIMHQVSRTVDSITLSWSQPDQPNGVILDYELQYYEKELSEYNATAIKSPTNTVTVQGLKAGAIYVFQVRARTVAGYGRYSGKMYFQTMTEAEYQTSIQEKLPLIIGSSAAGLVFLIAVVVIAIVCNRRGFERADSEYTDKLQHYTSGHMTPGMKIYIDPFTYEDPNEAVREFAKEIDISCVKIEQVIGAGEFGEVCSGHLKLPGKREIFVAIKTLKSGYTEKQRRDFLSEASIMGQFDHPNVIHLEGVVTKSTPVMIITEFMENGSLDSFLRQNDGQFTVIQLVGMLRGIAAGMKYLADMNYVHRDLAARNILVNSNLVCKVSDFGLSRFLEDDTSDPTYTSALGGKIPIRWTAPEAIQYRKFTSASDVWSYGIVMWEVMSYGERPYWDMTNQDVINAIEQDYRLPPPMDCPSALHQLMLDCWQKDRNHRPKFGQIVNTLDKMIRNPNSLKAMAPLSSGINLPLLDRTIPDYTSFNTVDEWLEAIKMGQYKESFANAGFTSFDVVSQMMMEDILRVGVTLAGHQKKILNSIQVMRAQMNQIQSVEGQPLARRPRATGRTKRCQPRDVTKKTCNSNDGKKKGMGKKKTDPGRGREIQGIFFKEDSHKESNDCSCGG
METHOD_SUMMARY: phosphorylation enrichment, bacterial display (enrichment ratio); higher = better substrate or ligand; peptides without Tyr show the background;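 further: 11-residue human phosphosite peptides and single-mutation variants displayed on the E. coli surface, counted by deep sequencing, each peptide's frequency after selection divided by its frequency in the unselected input library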;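 further: frequency after pTyr selection over input frequency; kinase dosed for 20-30% of maximal phosphorylation in three min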
Overview of reported phosphorylation enrichment across a group of sequences:
Just the number, please, no unit after it.

Field: example entries. Status: answers known.
QTLTDYDIRFF [CSNK2A1_Y131_YF]	0.677
NVDGKYSFLKV [GRM3_Y478_G475D_YF]	0.356
GKFRMYVAVWT [F13A1_Y161]	0.604
CSEEMYCLMLQ [RET_Y981_R982C]	0.794
PVVKLYATEGR [RP1_Y199_D202E]	0.251
VEKEKYVSFIS [JMJD1C_Y596_M591V_YF]	0.52

input: Please report the recorded phosphorylation enrichment for TEYIQYVRRKN [MAX_Y73_M74V] .
output: 0.425

input: Please report the recorded phosphorylation enrichment for DENCFYTRAAS [RPS19_Y54_W52C] .
output: 0.554

input: Please report the recorded phosphorylation enrichment for DTKDDYSALSV [IL17RB_Y457_N458S] .
output: 0.663

input: Please report the recorded phosphorylation enrichment for TSEASYYKSLN [NGEF_Y288] .
output: 0.498

input: Please report the recorded phosphorylation enrichment for TSPALYRLDLD [TRIL_Y352_A347T] .
output: 0.51

Values compiled from the supplement of paper PMC10065799.
